src = ChEMBL document CHEMBL4689842

# System: U2OS
# assay protocol: Multiplex assay against U2OS
# Format: toxicity, cell-based
# recorded conditions: human, 24 h, 1 µM, compound concentration 1 uM, replicate 2
Rule: Population Membrane Permeable-Phenotype (%) under 10% gives 0.0, otherwise 1.0.

Examples with answers:
{"molecule": "Cl.O=C(O)c1cc(-c2ccc(C3CCNCC3)cc2)c2ccc(-c3ccc(C(F)(F)F)cc3)cc2c1", "assigned category": 0.0}
{"molecule": "Cc1nc(N2CC[C@H](O)C2)ncc1-c1cc(C(F)(F)F)cc2[nH]ncc12", "assigned category": 0.0}
{"molecule": "COc1ccc(-c2ccc3ncc4c(c3c2)n(-c2ccc(N3CCNCC3)c(C(F)(F)F)c2)c(=O)n4C)cn1.O=C(O)/C=C\\C(=O)O [BGT-226]", "assigned category": 1.0}
{"molecule": "COc1ccccc1CN[C@H]1C2CCN(CC2)[C@H]1C(c1ccccc1)c1ccccc1 [CP-96345]", "assigned category": 0.0}
{"molecule": "CCc1ccc(OCc2ccccc2C(=O)Nc2ccc3nc(C)cc(N)c3c2)cc1.Cl", "assigned category": 1.0}
{"molecule": "CCc1nn(CCCN2CCN(c3cccc(Cl)c3)CC2)c(=O)n1CCOc1ccccc1.Cl [NEFAZODONE HYDROCHLORIDE]", "assigned category": 0.0}
{"molecule": "Cc1cccc(CN2CCN(C(c3ccccc3)c3ccc(Cl)cc3)CC2)c1.Cl.Cl (stereo not drawn)", "assigned category": 1.0}
{"molecule": "CCOC(=O)Nc1cc(-c2ccc(C)c(NS(C)(=O)=O)c2)nn2c(C)nnc12", "assigned category": 0.0}
{"molecule": "COC(=O)C1=C(C)NC(C)=C(C(=O)OCCCN2CCC(c3ccccc3)(c3ccccc3)CC2)[C@H]1c1cccc([N+](=O)[O-])c1 [NIGULDIPINE]", "assigned category": 1.0}
{"molecule": "CC(C)(C)NC[C@H](O)COc1nsnc1N1CCOCC1 [TIMOLOL]", "assigned category": 0.0}

Let us examine a further case.
Exam item: Would you say CNC(=O)Nc1ccc2c(c1)[C@@]1(CC2)OC(=O)N(CC(=O)N(Cc2ccc(F)cc2)[C@@H](C)C(F)(F)F)C1=O [A-486] shows Population Membrane Permeable-Phenotype (%) at minimum 10%?
Marked response: 1.0

====

Measured Population Pyknosed Nuclei (%), listed per entry for reference.
# Test system: U2OS
# assay protocol: Multiplex assay against U2OS
# Format: toxicity, cell-based
# recorded conditions: human, 48 h, 1 µM, compound concentration 1 uM, replicate 2
Kindly answer with a numeric value in %, unit omitted.

{"molecule": "CCc1nn(CCCN2CCN(c3cccc(Cl)c3)CC2)c(=O)n1CCOc1ccccc1.Cl [NEFAZODONE HYDROCHLORIDE]", "assayed system": "U2OS", "Population Pyknosed Nuclei (%)": 5}
{"molecule": "CCc1ccc(OCc2ccccc2C(=O)Nc2ccc3nc(C)cc(N)c3c2)cc1.Cl", "assayed system": "U2OS", "Population Pyknosed Nuclei (%)": 32}
{"molecule": "CNC(=O)Nc1ccc(-c2nc(N3CC4CCC(C3)O4)c3cnn(C4CCC5(CC4)OCCO5)c3n2)cc1", "assayed system": "U2OS", "Population Pyknosed Nuclei (%)": 30}

Now look at this entry.
Exam item: Check the records and state Population Pyknosed Nuclei (%) for O=C(c1cc2c(cc1F)OC(c1ccc(F)cc1)(c1ccc(Cl)cc1Cl)O2)N1CCOCC1 (configuration not stated)
Marked response: 6
